- target-under-test: recombinant human DHODH (Homo sapiens, UniProt Q02127)
- Sequence (Q02127 31-395 limits assumed): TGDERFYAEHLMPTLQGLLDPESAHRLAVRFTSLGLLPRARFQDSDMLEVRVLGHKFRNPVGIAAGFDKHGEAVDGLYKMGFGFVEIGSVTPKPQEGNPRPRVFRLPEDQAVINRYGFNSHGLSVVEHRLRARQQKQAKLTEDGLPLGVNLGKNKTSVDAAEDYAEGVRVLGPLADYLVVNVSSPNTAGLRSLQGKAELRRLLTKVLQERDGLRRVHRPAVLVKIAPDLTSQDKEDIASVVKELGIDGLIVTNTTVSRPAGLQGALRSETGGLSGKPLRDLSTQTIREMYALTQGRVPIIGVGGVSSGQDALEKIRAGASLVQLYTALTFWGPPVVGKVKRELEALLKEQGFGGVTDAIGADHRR
- protocol-description: Endpoint DHODH enzyme assay (coenzyme Q10, DCIP)
- Type: biochemical
- Design: purchased Prospecbio ENZ-642
- test-context: compound at 10 µM; Supplementary Table 6, 30,000 compound library
# remaining DHODH activity (%) Average annotations

{"columns": ["molecule", "target-under-test", "remaining DHODH activity (%) Average"],
 "data": [
  ["Cc1ccc2[nH]c3c(c2c1)CCCC3NC=C1C(=O)CC(C)(C)CC1=O (centres unmarked)", "recombinant human DHODH (Homo sapiens, UniProt Q02127)", 92.20],
  ["O=C1C(O)=C(c2ccc(-c3ccccc3)cc2)C(=O)c2ccccc21 [compound 5248918, 2-(4-biphenylyl)-3-hydroxynaphthoquinone]", "recombinant human DHODH (Homo sapiens, UniProt Q02127)", -1.54],
  ["O=C(NN=CC(Br)=Cc1ccccc1)c1n[nH]c2c1CCC2", "recombinant human DHODH (Homo sapiens, UniProt Q02127)", 92.49],
  ["COc1ccccc1N1C(=O)C(=C2C(=O)Nc3ccc(Br)cc32)SC1=S", "recombinant human DHODH (Homo sapiens, UniProt Q02127)", 98.93],
  ["Oc1ccccc1C=Nc1ccc2cc3ccc(N=Cc4ccccc4O)cc3nc2c1", "recombinant human DHODH (Homo sapiens, UniProt Q02127)", 98.57]
]}

* * *

- protocol-description: In vivo pharmacokinetic parameters of (R)-HZ05
- Set-up: species or system C57B1/6N mice
- test-context: female, C57B1/6N, mouse, plasma, iv, 5 mg kg-1, mice; i.v

{"columns": ["molecule", "clearance / mL/min/kg"],
 "data": [
  ["O=C(N[C@@H]1CCCc2c1cnn2-c1ccccc1F)c1onc2c1CCCC2 [(R)-HZ05]", 90]
]}

* * *

- target-under-test: recombinant human DHODH (Homo sapiens, UniProt Q02127)
- protocol-description: Endpoint DHODH enzyme assay (coenzyme Q10, DCIP)
- Assay type: biochemical
- Design: purchased Prospecbio ENZ-642
- test-context: compound at 10 µM; Supplementary Table 5, 20,000 compound library
Overview of recorded remaining activity at 10 µM for various molecules
reported-endpoint: remaining activity at 10 µM (%)

{"columns": ["molecule", "reported-endpoint", "recorded-number"],
 "data": [
  ["COc1cc(CNc2ccc(C)c(Cl)c2)cc(Cl)c1OC [compound 7574753]", "remaining activity at 10 µM", 79.9],
  ["CCN(CC)c1ccc(NC(=S)NC(=O)c2cccc(C)c2OC)cc1 [compound 7578012]", "remaining activity at 10 µM", 79],
  ["COc1ccc(C2c3[nH]c4ccccc4c3CCN2Cc2ccoc2)c(F)c1 (stereo not drawn) [compound 76026685]", "remaining activity at 10 µM", 88.5],
  ["O=C1CC(c2ccccc2OCc2ccccc2)c2cc3c(cc2N1)OCCO3 (stereo not drawn) [compound 7834586]", "remaining activity at 10 µM", 103],
  ["CC(C)Oc1ccccc1C1CC(=O)Nc2cc3c(cc21)OCCO3 (stereo not drawn) [compound 7800701]", "remaining activity at 10 µM", 88.1],
  ["CC(C)c1nc(C(=O)N2CCC3(CCCN(CCc4ccccc4)C3)C2)cs1 (stereo not drawn) [compound 51157786]", "remaining activity at 10 µM", -5.48],
  ["CCOc1cc(C=Cc2ccc3cccc(OC(=O)CC)c3n2)ccc1OC(=O)CC [compound 7706999]", "remaining activity at 10 µM", 98.2],
  ["O=C(Nc1ccc2ccccc2c1)C12CC3CC(CC(C3)C1)C2 [compound 5135537, N-2-naphthyl-1-adamantanecarboxamide]", "remaining activity at 10 µM", 32],
  ["COc1cccc(-c2noc(-c3ccc(N4CCCC(O)C4)nc3)n2)c1OC (stereo not drawn) [compound 78928129]", "remaining activity at 10 µM", 42.3],
  ["O=S(=O)(CCSc1nc2ccccc2o1)c1nc2ccccc2s1 [compound 7617239]", "remaining activity at 10 µM", 103],
  ["COc1ccc(Cl)cc1NC(=O)c1ccc([N+](=O)[O-])o1 [compound 5356839]", "remaining activity at 10 µM", 83.8],
  ["O=C(Nc1cc(Cl)ccc1Cl)c1ccc([N+](=O)[O-])o1 [compound 5351342]", "remaining activity at 10 µM", 90.4],
  ["Oc1ccccc1-c1nc(C=Cc2cccs2)n[nH]1 [compound 7776857]", "remaining activity at 10 µM", 77.3],
  ["CCc1ccc(NC(=O)c2ccc([N+](=O)[O-])o2)cc1 [compound 5351720, N-(4-ethylphenyl)-5-nitro-2-furamide]", "remaining activity at 10 µM", 73.5],
  ["O=C(Nc1cc(C(F)(F)F)cc(C(F)(F)F)c1)c1c(F)c(F)c(F)c(F)c1F [compound 7739721]", "remaining activity at 10 µM", 98.2],
  ["O=c1oc2ccccc2cc1-c1cn2cc(Cl)ccc2n1 [compound 6623100]", "remaining activity at 10 µM", 96.3],
  ["O=C(Nc1nc2c(s1)CCCC2)C(=O)c1c[nH]c2ccccc12 [compound 7690424]", "remaining activity at 10 µM", 11],
  ["Cc1ccc(CSCC(=O)Nc2ccccc2C(=O)O)cc1 [compound 7723007]", "remaining activity at 10 µM", -8.22],
  ["Cc1ccc(-c2nc(CN3CCCCC3c3nccs3)c(C)o2)o1 (stereo not drawn) [compound 47561416]", "remaining activity at 10 µM", 86.3],
  ["Cc1cc(=O)oc2cc(NC(=S)N3c4ccccc4CC3C)ccc12 (stereo not drawn) [compound 7841649]", "remaining activity at 10 µM", 3.65],
  ["CCN(CC)c1ccc(-c2nc(-c3cccc(OC)c3OC)no2)cn1 [compound 57235883]", "remaining activity at 10 µM", 9.4],
  ["Cc1ccccc1NC(=S)NC(=O)c1cccc2c(Br)cccc12 [compound 6592864]", "remaining activity at 10 µM", 72.2],
  ["COc1ccc(OC)c(C(C)NC(=O)c2ccco2)c1 (stereo not drawn) [compound 6912406]", "remaining activity at 10 µM", 93.2],
  ["CCOc1cccc2c(C)nc(Nc3nc(=O)c4c([nH]3)CCCC4)nc12 [compound 7587351]", "remaining activity at 10 µM", 92.7],
  ["CCOC(=O)c1c(-c2ccccc2)csc1NC(=O)c1cc(OC)c(OC)c(OC)c1 [compound 5264537]", "remaining activity at 10 µM", 82.9],
  ["NC(=O)c1ccccc1NC(=O)Nc1ccccc1C(F)(F)F [compound 7794325]", "remaining activity at 10 µM", 92.2],
  ["COc1cccc(-c2noc(-c3ccc(N4CCCCC4)nc3)n2)c1OC [compound 57999135]", "remaining activity at 10 µM", 16.7],
  ["Cc1cc(O)ccc1NC(=O)c1ccc(-c2ccccc2)cc1 [compound 7782544]", "remaining activity at 10 µM", 73.5],
  ["CCC(C)Nc1ccc(-c2nc(-c3cccc(OC)c3OC)no2)cn1 (stereo not drawn) [compound 55410102]", "remaining activity at 10 µM", 2.28],
  ["COC(=O)c1cccc(NC(=S)Nc2cc(Cl)ccc2OC)c1 [compound 7801595]", "remaining activity at 10 µM", 100]
]}

* * *

- target-under-test: recombinant human DHODH (Homo sapiens, UniProt Q02127)
- protocol-description: Endpoint DHODH enzyme assay (coenzyme Q10, DCIP)
- Type: biochemical
- Set-up: purchased Prospecbio ENZ-642
- test-context: compound at 10 µM; Supplementary Table 6, 30,000 compound library
- Experimental: In Supplementary Tables 5 and 6, endpoint assays were performed with 10 nM recombinant human DHODH (#ENZ-642, Prospecbio). The reaction mixture consisted of 624.6 µM DL-dihydroorotic acid, 66.4 µM coenzyme Q10, 66.4 µM 2,6-dichlorophenolindophenol sodium salt (DCIP) (all reagents purchased from Sigma-Aldrich) in enzyme buffer (50 mM Tris-HCl, pH 8.0, 0.1% Triton X-100, 150 mM KCl). Loss in absorbance by DCIP was measured at 595 nm after incubation at RT for 60 min.
Consider the cut-off 90%. If the recorded remaining activity at 10 µM is strictly smaller, the label is label 1; if not, the label is label 0.

{"columns": ["compound", "discrete-label"],
 "data": [
  ["O=[N+]([O-])c1ccc2[nH]c3c(c2c1)CCCC3NC1CCN(CCc2ccccc2)CC1 (stereo not drawn)", "label 1"],
  ["O=C(Nc1nc2ccccc2s1)C1c2ccccc2Oc2ccccc21", "label 1"],
  ["O=C(NN=Cc1cccc(Oc2ccccc2)c1)c1cccc([N+](=O)[O-])c1", "label 0"],
  ["NC(=O)c1ccccc1N=Cc1cccc(Cl)c1 [compound 5321611, 2-[(3-chlorobenzylidene)amino]benzamide]", "label 0"],
  ["COc1ccc(CC(C)NC2CCCc3c2[nH]c2ccc([N+](=O)[O-])cc32)cc1OC (stereo not drawn)", "label 1"],
  ["Cc1ccc2[nH]c3c(c2c1)CCCC3NCc1ccccc1 (stereo not drawn)", "label 1"],
  ["c1ccc(NN=C2CCc3ccccc3N2)cc1", "label 0"],
  ["Cc1ccc(C=NNC(=O)COc2ccccc2Br)c(C)c1", "label 1"]
]}
